System: P. vulgatus WT
Experiment: growth AUC normalised to DMSO control (median) (fraction of control); higher = less growth inhibition, active = hit call of the paper
Details: 20 µM
Structures can show the parent of a compound that is named as a salt.
Could you please pick one outcome from this set? active, inactive

{"Compound": "O=C(O)COCCN1CCN(C(c2ccccc2)c2ccc(Cl)cc2)CC1 (stereo not drawn) [Cetirizine dihydrochloride]", "Assigned class": "inactive"}
{"Compound": "NCCc1cc[nH]n1 [Betazole hydrochloride]", "Assigned class": "inactive"}
{"Compound": "C[C@H]1C[C@@H]2[C@H]([C@@H](O)C[C@@]3(C)[C@H]2CC[C@]3(O)C(=O)CO)[C@@]2(C)C=CC(=O)C=C12", "Assigned class": "inactive"}
{"Compound": "CC(=O)Nc1nnc(S(N)(=O)=O)s1 [Acetazolamide]", "Assigned class": "inactive"}
{"Compound": "COc1cc(C(=O)N2CCOCC2)cc(OC)c1OC", "Assigned class": "inactive"}

Hey, what did the test say about CN(C)CC/C=C1/c2ccccc2Sc2ccc(Cl)cc21 [Chlorprothixene hydrochloride] ?
inactive

Recorded test outcome, item COc1cccc2c1C(=O)c1c(O)c3c(c(O)c1C2=O)C[C@@](O)(C(C)=O)C[C@@H]3O[C@H]1C[C@H](N)[C@H](O)[C@H](C)O1 [Daunorubicin hydrochloride]
inactive

Outcome? CC(C)OC(=O)C(C)(C)Oc1ccc(C(=O)c2ccc(Cl)cc2)cc1 [Fenofibrate]
inactive

Each compound tested received a call. Report the one for O=C1OCCN1/N=C/c1ccc([N+](=O)[O-])o1 .
active

---

Tested on: Yersinia pseudotuberculosis
Assay: growth AUC normalised to DMSO control (fraction of control); higher = less growth inhibition, active = hit call of the paper
Conditions: 20 µM
Structures can show the parent of a compound that is named as a salt.
Measure name: growth AUC normalised to DMSO control
Give a plain numeric answer without units written out.

Observe how each entry below is paired with its result.
{"Molecule": "Cc1cnc(C(=O)NCCc2ccc(S(=O)(=O)NC(=O)NC3CCCCC3)cc2)cn1 [Glipizide]", "growth AUC normalised to DMSO control": 1.01}
{"Molecule": "COc1c2occc2c(OC)c2c(=O)cc(C)oc12", "growth AUC normalised to DMSO control": 1.01}
{"Molecule": "C[C@]12C=CC(=O)C=C1CC[C@@H]1[C@@H]2[C@@H](O)C[C@@]2(C)[C@H]1CC[C@]2(O)C(=O)CO", "growth AUC normalised to DMSO control": 0.994}
{"Molecule": "COc1cc(C)c(/C=C/C(C)=C/C=C/C(C)=C/C(=O)O)c(C)c1C", "growth AUC normalised to DMSO control": 0.99}
{"Molecule": "O=C(O)/C=C/c1ccc(Cn2ccnc2)cc1 [Ozagrel hydrochloride]", "growth AUC normalised to DMSO control": 1.01}

Return value of growth AUC normalised to DMSO control for input CN1CCC[C@@H]1CCO[C@](C)(c1ccccc1)c1ccc(Cl)cc1 [Clemastine fumarate] , no commentary.
1.02

Look up and report measured growth AUC normalised to DMSO control for this entry: CC1c2cccc(O)c2C(O)=C2C(=O)C3(O)C(O)=C(C(N)=O)C(=O)C(N(C)C)C3C(O)C21 (stereo not drawn) [Doxycycline hydrochloride]
0.0395

Supply measured growth AUC normalised to DMSO control of CNCC(O)c1ccc(O)c(O)c1 (stereo not drawn) [Racepinephrine hydrochloride] in your reply.
1.04

---

System: S. enterica typhimurium WT
Experiment: growth AUC normalised to DMSO control (median) (fraction of control); higher = less growth inhibition, active = hit call of the paper
Conditions: 20 µM
Counter-ions that a name gives are not always drawn.
The entries below are paired with their reported growth AUC normalised to DMSO control.
Answer using only a numeral; do not append any unit.

Known results for compounds:
{"Compound": "Nc1ccc(S(=O)(=O)Nc2cnc3ccccc3n2)cc1 [Sulfaquinoxaline sodium salt]", "System": "S. enterica typhimurium WT", "growth AUC normalised to DMSO control": 0.985}
{"Compound": "CCCN(CCC)C(=O)C(CCC(=O)O)NC(=O)c1ccccc1 (centres undefined) [Proglumide]", "System": "S. enterica typhimurium WT", "growth AUC normalised to DMSO control": 1}

Please supply the value of reported growth AUC normalised to DMSO control for the item CC(C(=O)O)c1ccc(C(=O)c2cccs2)cc1 (centres undefined) [Suprofen]
0.996

---

Test system: Shigella flexneri
Test: growth AUC normalised to DMSO control (fraction of control); higher = less growth inhibition, active = hit call of the paper
Settings: 20 µM
Where a name gives a salt, the structure may show the parent alone.
Measure name: growth AUC normalised to DMSO control
Hey, just send me the number, nothing else.

Solved cases (6 shown):
{"Molecule": "COC1=C(OC)C(=O)C(CCCCCCCCCCO)=C(C)C1=O", "System": "Shigella flexneri", "Measure name": "growth AUC normalised to DMSO control", "Reported result": 1.01}
{"Molecule": "CC1(C)OC(=O)NC1=O", "System": "Shigella flexneri", "Measure name": "growth AUC normalised to DMSO control", "Reported result": 0.995}
{"Molecule": "CN(C)c1nc(N(C)C)nc(N(C)C)n1", "System": "Shigella flexneri", "Measure name": "growth AUC normalised to DMSO control", "Reported result": 1.06}
{"Molecule": "O=C(N[C@H](CO)[C@H](O)c1ccc([N+](=O)[O-])cc1)C(Cl)Cl", "System": "Shigella flexneri", "Measure name": "growth AUC normalised to DMSO control", "Reported result": 0.0276}
{"Molecule": "O=c1n(CCCN2CCN(c3cccc(Cl)c3)CC2)nc2ccccn12 [Trazodone hydrochloride]", "System": "Shigella flexneri", "Measure name": "growth AUC normalised to DMSO control", "Reported result": 0.991}
{"Molecule": "Cc1cccc(N(C)C(=S)Oc2ccc3ccccc3c2)c1 [Tolnaftate]", "System": "Shigella flexneri", "Measure name": "growth AUC normalised to DMSO control", "Reported result": 1.02}

Check Shigella flexneri data and give growth AUC normalised to DMSO control for Nc1ccc(S(=O)(=O)Nc2ccccn2)cc1 .
0.95

Recall the reported growth AUC normalised to DMSO control of CC(=O)N[C@@H](CC(=O)O)C(=O)N[C@@H](CCC(=O)O)C(=O)O when tested on Shigella flexneri.
1.01

---

Test system: S. enterica typhimurium tolC KO
Assay: growth AUC normalised to DMSO control (median) (fraction of control); higher = less growth inhibition, active = hit call of the paper
Conditions: 20 µM
Structures can show the parent of a compound that is named as a salt.
Measure name: growth AUC normalised to DMSO control
Enter a number only.

Known growth AUC normalised to DMSO control results, listed for orientation:
{"Compound": "CC(C(=O)O)c1ccc2c(c1)Cc1cccnc1O2 (stereo unspecified)", "Reported result": 1}
{"Compound": "C[N+]1(C)CCC(=C(c2ccccc2)c2ccccc2)CC1 [Diphemanil methylsulfate]", "Reported result": 1}
{"Compound": "O=C1NCC2(CCN(CCc3ccccc3)CC2)O1 [Fenspiride hydrochloride]", "Reported result": 0.993}

// fetch growth AUC normalised to DMSO control for CC(C(=O)O)c1ccc(N2Cc3ccccc3C2=O)cc1 (stereo unspecified) ; system: S. enterica typhimurium tolC KO
0.997

Look up and report growth AUC normalised to DMSO control, with S. enterica typhimurium tolC KO as system, for C#C[C@]1(OC(C)=O)CC[C@H]2[C@@H]3CCC4=CC(=NO)CC[C@@H]4[C@H]3CC[C@@]21CC (mixture of isomers) [Norgestimate]
0.955

# return growth AUC normalised to DMSO control of CC(CNC1CCCCC1)OC(=O)c1ccccc1 (stereo unspecified) [Hexylcaine hydrochloride] (system: S. enterica typhimurium tolC KO)
0.992

State recorded growth AUC normalised to DMSO control with S. enterica typhimurium tolC KO, entry CC[C@H](C)C(=O)O[C@H]1C[C@@H](C)C=C2C=C[C@H](C)[C@H](CC[C@@H]3C[C@@H](O)CC(=O)O3)[C@H]21 , no comment.
0.967

Quote S. enterica typhimurium tolC KO growth AUC normalised to DMSO control for entry O=c1[nH]c(=O)n([C@H]2C[C@H](O)[C@@H](CO)O2)cc1C(F)(F)F .
0.958

---

Here the recorded growth AUC normalised to DMSO control is given for each entry.
System: P. vulgatus WT
Assay: growth AUC normalised to DMSO control (median) (fraction of control); higher = less growth inhibition, active = hit call of the paper
Settings: 20 µM
Counter-ions that a name gives are not always drawn.
// return a plain number; no unit text

{"Compound": "CNS(=O)(=O)Cc1ccc2[nH]cc(CCN(C)C)c2c1 [Sumatriptan succinate]", "growth AUC normalised to DMSO control": 1.01}
{"Compound": "CC1=Nc2ccc(Cl)cc2S(=O)(=O)N1 [Diazoxide]", "growth AUC normalised to DMSO control": 1.01}
{"Compound": "CC1(C)O[C@@H]2[C@@H](CO[C@@]3(COS(N)(=O)=O)OC(C)(C)O[C@@H]23)O1 [Topiramate]", "growth AUC normalised to DMSO control": 0.967}
{"Compound": "NC(=O)NS(=O)(=O)c1ccc(N)cc1 [Sulfacarbamide]", "growth AUC normalised to DMSO control": 1.01}
{"Compound": "N=C(NCCCCCCNC(=N)NC(=N)Nc1ccc(Cl)cc1)NC(=N)Nc1ccc(Cl)cc1", "growth AUC normalised to DMSO control": 0.0134}
{"Compound": "Cn1c(=O)c2c(ncn2C)n(C)c1=O", "growth AUC normalised to DMSO control": 1.02}

State, in one line, measured growth AUC normalised to DMSO control of Clc1ccc2c(c1)C(N1CCNCC1)=Nc1ccccc1O2
0.759

State its growth AUC normalised to DMSO control: COc1ccc(C(Cl)=C(c2ccc(OC)cc2)c2ccc(OC)cc2)cc1
0.928

// fetch growth AUC normalised to DMSO control given entry O=C(O)c1cn(C2CC2)c2cc(N3CCNCC3)c(F)cc2c1=O [Ciprofloxacin hydrochloride monohydrate]
0.679

Using known records, supply growth AUC normalised to DMSO control for CN(C)C(=N)NC(=N)N [Metformin hydrochloride]
0.996

For the compound CCOC(=O)C1=C(C)NC(C)=C(C(=O)OCC)C1c1ccccc1/C=C/C(=O)OC(C)(C)C , report growth AUC normalised to DMSO control.
1.06

Respond only with growth AUC normalised to DMSO control recorded for COc1ccc(C(=O)NCc2cccnc2)cc1C(=O)NCc1cccnc1 [Picotamide monohydrate]
1.01

Fill in reported growth AUC normalised to DMSO control for this entry: N[C@@H](Cc1c[nH]c2ccccc12)C(=O)O
1.03
